Give IC50 for every item shown.
- Test system: HCT116 (colorectal carcinoma, K Ras G13D) cells
- experimental-details: Cell proliferation (Alamar Blue) assay, HCT116
- Assay type: cell-based, human
- condition-summary: Homo sapiens, HCT-116, HCT116 cells
Counter-ions that a name gives are not always drawn.

The recorded IC50 for entry O=C(N[C@H](CO)c1cccc(Cl)c1)c1cn(-c2ccnc(Nc3ccccc3)c2)cn1 [Example 72] equals > 2500 nM

The recorded IC50 for entry Cc1cnc(N[C@H]2CCOC2)nc1-n1cnc(C(=O)NCc2ccc(Cl)c(Cl)c2)c1 [Example 314] equals > 2500 nM

The recorded IC50 for entry Cc1cnc(NC2CCOc3ccccc32)nc1-n1cnc(C(=O)N[C@H](CN)c2cccc(Cl)c2)c1 (stereo partly shown) [Example 271] equals ≤ 100 nM

The recorded IC50 for entry Cc1cnc(Nc2ccc(F)c(C(=O)N3CCN(C)CC3)c2)nc1-n1ccc(C(=O)NC(CO)c2cccc(Cl)c2)c1 (stereo not shown) [Example 179] equals 500 to 2500 nM

The recorded IC50 for entry Cc1cnc(NC2CCOCC2)nc1-n1cnc(C(=O)NC(CN)c2cccs2)c1 (stereo not shown) [Example 267] equals 100 to 250 nM

The recorded IC50 for entry Cc1cnc(NC2CCOCC2)nc1-n1cnc(C(=O)NC(CO)c2cccc(C(F)(F)F)c2)c1 (stereo not shown) [Example 237] equals > 2500 nM

The recorded IC50 for entry O=C(Nc1cnn(-c2ccnc(Nc3ccccc3Cl)n2)c1)N[C@@H](CO)c1ccccc1 [Example 4] equals > 2500 nM

The recorded IC50 for entry Cc1cnc(NC2CC(F)(F)C2)nc1-n1cnc(C(=O)N[C@H](CN)c2cc(F)cc(Cl)c2)c1 [Example 288] equals ≤ 100 nM

The recorded IC50 for entry Cc1cnc(Nc2ccc(F)cc2Cl)cc1-n1ccc(C(=O)NC(CO)c2cccc(Cl)c2)c1 (stereo not shown) [Example 91] equals > 2500 nM

The recorded IC50 for entry O=C(NC(CO)c1cccc(Cl)c1)c1ccn(-c2ccnc(Nc3ccc4c(c3)OC(F)(F)O4)n2)c1 (stereo not shown) [Example 176] equals > 2500 nM

The recorded IC50 for entry Cc1cnc(NC2CCOc3ccccc32)nc1-n1cnc(C(=O)N[C@H](CO)c2cccc(Cl)c2)c1 (stereo partly shown) [Example 247] equals > 2500 nM

The recorded IC50 for entry O=C(NC(CO)c1ccccc1)c1ccn(-c2ccnc(Nc3ccc(F)cc3)c2)c1 (stereo not shown) [Example 84] equals > 2500 nM

The recorded IC50 for entry Cc1cnc(N[C@H]2CCOC2)nc1-n1cnc(C(=O)NCc2cccc(CO)c2Cl)c1 [Example 338] equals 500 to 2500 nM

The recorded IC50 for entry Cc1cnc(Nc2ccc3c(c2)OCO3)nc1-n1ccc(C(=O)N[C@H](CO)Cc2ccccc2)c1 [Example 59] equals 250 to 500 nM

The recorded IC50 for entry Cc1cnc(Nc2ccc3c(c2)OC(F)(F)O3)nc1-n1ccc(C(=O)NC(CN)c2cccc(Cl)c2)c1 (stereo not shown) [Cmpd 136] equals 500 to 2500 nM

The recorded IC50 for entry Cc1cnc(N[C@H]2CCOC2)nc1-n1cnc(C(=O)NCc2cc(Cl)cc(Cl)c2)c1 [Example 313] equals > 2500 nM

The recorded IC50 for entry Cc1cnc(Nc2ccc(C3CCNCC3)c(F)c2)nc1-n1ccc(C(=O)NC(CO)c2cccc(Cl)c2)c1 (stereo not shown) [Example 216] equals 500 to 2500 nM

The recorded IC50 for entry Cc1cnc(Nc2ccc3c(c2)OCO3)nc1-n1ccc(C(=O)NC(CO)c2cccc(Cl)c2)c1 (stereo not shown) [Example 42] equals 250 to 500 nM

The recorded IC50 for entry CC[C@@H](CO)Nc1ncc(C)c(-n2ccc(C(=O)N[C@@H](CO)c3cccc(Cl)c3)c2)n1 [Example 218] equals > 2500 nM

The recorded IC50 for entry Cc1cnc(NC2CCOCC2)nc1-n1cnc(C(=O)N[C@H](CNCC(C)(C)C)c2cccc(Cl)c2)c1 [Example 337] equals 500 to 2500 nM

The recorded IC50 for entry CC[C@H](CO)Nc1cc(-n2cnc(C(=O)N[C@H](CO)c3cccc(Cl)c3)c2)ccn1 [Cmpd 105] equals > 2500 nM

The recorded IC50 for entry Cc1cnc(N[C@H]2CCOC2)nc1-n1cnc(C(=O)NCc2cccc(C#N)c2)c1 [Example 310] equals > 2500 nM

The recorded IC50 for entry Cc1cnc(Nc2ccc3c(c2)OC(F)(F)O3)cc1-n1ccc(C(=O)NC(CO)c2ccccc2)c1 (stereo not shown) [Example 80] equals > 2500 nM

The recorded IC50 for entry Cc1cnc(N[C@H]2CCOC2)nc1-n1cnc(C(=O)NCc2cccc(C(F)(F)F)c2Cl)c1 [Example 317] equals > 2500 nM

The recorded IC50 for entry Cc1cnc(Nc2ccc(F)cc2Cl)nc1-n1ccc(C(=O)NC(CO)c2ccccc2)c1 (stereo not shown) [Example 32] equals > 2500 nM

The recorded IC50 for entry Cc1cnc(NC2CC2)nc1-n1cc(C(=O)NC(CO)c2cccc(Cl)c2)cn1 (stereo not shown) [Example 40] equals > 2500 nM

The recorded IC50 for entry Cc1cnc(Nc2ccc(F)c(N3CCOCC3)c2)nc1-n1cnc(C(=O)NC(CN)c2cccc(Cl)c2)c1 (stereo not shown) [Example 256] equals ≤ 100 nM

The recorded IC50 for entry Cc1cnc(Nc2ccc3[nH]cc(C4=CCNCC4)c3c2)nc1-n1ccc(C(=O)NC(CO)c2cccc(Cl)c2)c1 (stereo not shown) [Example 209, hydrochloride] equals > 2500 nM

The recorded IC50 for entry Cc1cnc(Nc2ccc(F)cc2Cl)nc1-n1cnc(C(=O)NCc2cccc(Cl)c2CO)c1 [Example 329] equals 250 to 500 nM

The recorded IC50 for entry Cc1cnc(NC2CCOC2)nc1-n1ccc(C(=O)N[C@H](CO)c2cccc(Cl)c2)c1 (stereo partly shown) [Example 151] equals 500 to 2500 nM

The recorded IC50 for entry Cc1cnc(Nc2ccc3c(c2)OC(C)(C)O3)nc1-n1ccc(C(=O)NC(CO)c2cccc(Cl)c2)c1 (stereo not shown) [Example 96] equals 500 to 2500 nM
